biological target: WIZ (Homo sapiens, UniProt O95785+Q96SW2); construct: expressed in transfected cells; experiment: Quantification of WIZ protein levels in HiBit tag fusion protein assay (WIZ HiBit assay in 293T cells); format: cell-based; settings: HEK-293T, 100 minus Amax at 25 uM; read-out: % degradation of WIZ (100-Amax)
Sequence (O95785 whole entry, the tested form may be a part): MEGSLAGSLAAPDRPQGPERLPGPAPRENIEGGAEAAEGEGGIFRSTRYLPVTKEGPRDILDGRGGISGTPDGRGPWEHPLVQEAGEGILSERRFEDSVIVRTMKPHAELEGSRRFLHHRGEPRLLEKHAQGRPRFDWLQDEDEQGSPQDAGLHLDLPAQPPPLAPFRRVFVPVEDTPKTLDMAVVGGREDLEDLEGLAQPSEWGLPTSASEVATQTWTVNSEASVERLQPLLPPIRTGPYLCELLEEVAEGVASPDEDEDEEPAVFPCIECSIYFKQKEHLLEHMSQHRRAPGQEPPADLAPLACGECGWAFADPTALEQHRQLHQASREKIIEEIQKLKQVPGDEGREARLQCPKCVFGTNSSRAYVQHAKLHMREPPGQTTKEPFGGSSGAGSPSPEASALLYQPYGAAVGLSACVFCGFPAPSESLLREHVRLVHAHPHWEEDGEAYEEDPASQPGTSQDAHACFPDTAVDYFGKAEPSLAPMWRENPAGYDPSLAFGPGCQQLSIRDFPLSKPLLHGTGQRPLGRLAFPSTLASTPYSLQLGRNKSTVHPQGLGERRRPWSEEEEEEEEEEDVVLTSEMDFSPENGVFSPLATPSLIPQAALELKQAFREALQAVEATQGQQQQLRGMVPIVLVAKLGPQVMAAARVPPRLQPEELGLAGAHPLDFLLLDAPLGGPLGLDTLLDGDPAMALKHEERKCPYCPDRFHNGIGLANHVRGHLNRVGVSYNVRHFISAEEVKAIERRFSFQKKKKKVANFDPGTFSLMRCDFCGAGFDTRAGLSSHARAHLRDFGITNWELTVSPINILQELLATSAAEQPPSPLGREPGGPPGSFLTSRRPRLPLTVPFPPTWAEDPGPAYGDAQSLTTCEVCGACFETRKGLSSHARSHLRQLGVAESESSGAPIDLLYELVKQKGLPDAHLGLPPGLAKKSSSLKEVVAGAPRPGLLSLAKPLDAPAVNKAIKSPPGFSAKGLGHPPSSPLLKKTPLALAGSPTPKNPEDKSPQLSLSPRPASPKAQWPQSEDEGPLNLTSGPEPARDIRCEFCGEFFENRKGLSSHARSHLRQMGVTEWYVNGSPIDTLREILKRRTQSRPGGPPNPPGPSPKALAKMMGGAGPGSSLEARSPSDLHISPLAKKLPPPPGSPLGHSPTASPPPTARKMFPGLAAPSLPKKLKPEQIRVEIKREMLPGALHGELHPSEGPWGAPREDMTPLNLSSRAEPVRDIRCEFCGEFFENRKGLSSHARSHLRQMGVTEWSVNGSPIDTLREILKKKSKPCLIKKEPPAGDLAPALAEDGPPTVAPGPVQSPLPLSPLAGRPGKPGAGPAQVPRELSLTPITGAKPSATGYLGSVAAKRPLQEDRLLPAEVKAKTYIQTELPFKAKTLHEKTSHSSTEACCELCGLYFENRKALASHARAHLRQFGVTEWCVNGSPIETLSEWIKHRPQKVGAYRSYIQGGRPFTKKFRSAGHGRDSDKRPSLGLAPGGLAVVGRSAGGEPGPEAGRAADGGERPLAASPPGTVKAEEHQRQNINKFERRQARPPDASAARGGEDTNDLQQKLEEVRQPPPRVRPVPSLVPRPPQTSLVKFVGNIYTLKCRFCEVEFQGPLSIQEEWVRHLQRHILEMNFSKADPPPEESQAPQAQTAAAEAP
Sequence (Q96SW2 whole entry, the tested form may be a part): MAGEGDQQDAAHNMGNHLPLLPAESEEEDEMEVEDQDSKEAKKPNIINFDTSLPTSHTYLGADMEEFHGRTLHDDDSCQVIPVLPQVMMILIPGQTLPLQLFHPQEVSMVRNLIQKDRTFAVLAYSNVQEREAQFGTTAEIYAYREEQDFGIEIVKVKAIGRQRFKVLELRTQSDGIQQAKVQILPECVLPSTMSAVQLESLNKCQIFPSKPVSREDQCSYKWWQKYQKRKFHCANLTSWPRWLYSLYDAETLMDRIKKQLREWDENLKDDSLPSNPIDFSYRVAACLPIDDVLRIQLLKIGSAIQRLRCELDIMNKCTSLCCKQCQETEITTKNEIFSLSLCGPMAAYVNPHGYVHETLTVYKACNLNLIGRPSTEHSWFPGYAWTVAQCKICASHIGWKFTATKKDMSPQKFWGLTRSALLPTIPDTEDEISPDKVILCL
Sequence (Q16531 whole entry partner, the tested form may be a part): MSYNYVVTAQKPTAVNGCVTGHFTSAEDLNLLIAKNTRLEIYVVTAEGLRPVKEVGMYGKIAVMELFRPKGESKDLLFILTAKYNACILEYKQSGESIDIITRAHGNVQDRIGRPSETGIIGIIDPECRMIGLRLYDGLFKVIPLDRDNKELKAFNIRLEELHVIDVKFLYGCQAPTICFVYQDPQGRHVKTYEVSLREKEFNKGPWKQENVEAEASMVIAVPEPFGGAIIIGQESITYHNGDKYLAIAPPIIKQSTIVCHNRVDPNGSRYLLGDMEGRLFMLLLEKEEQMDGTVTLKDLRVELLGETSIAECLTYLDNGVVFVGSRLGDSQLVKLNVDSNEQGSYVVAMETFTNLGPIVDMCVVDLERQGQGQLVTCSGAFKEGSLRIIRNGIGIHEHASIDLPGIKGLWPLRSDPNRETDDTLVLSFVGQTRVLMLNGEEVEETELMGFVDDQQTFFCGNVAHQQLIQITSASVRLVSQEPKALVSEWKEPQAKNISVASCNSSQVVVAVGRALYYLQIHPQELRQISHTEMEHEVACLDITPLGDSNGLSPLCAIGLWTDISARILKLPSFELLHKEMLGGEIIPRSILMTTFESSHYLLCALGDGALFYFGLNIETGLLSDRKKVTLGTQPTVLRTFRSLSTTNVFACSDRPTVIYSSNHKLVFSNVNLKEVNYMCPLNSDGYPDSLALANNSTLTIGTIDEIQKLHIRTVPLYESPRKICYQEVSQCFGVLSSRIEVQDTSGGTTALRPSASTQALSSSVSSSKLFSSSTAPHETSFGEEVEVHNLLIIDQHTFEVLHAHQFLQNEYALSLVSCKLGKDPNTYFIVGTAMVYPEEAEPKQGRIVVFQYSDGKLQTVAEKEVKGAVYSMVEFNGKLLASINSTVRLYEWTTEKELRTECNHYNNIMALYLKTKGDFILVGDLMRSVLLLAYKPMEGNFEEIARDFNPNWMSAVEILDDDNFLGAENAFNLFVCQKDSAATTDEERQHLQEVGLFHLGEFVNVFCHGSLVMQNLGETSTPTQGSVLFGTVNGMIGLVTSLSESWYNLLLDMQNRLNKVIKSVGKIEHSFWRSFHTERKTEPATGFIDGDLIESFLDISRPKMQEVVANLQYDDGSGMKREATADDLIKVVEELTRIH
reported_endpoint: Dmax at 25 µM (%)

# compound, Dmax at 25 µM / %
measured = [
    ("CC(C)CN1CCN(Cc2ccc3onc(N4CCC(=O)NC4=O)c3c2)[C@H](C(C)C)C1 [Example 90]", 85),
    ("O=C1CCN(c2noc3ccc(CN4CCN(C5CCC5)CC4)cc23)C(=O)N1 [Example 80]", 93),
    ("C[C@H]1CN(Cc2ccc3onc(N4CCC(=O)NC4=O)c3c2)[C@@H](C)CN1C [Example 106]", 86),
    ("CCN1CCC(Cc2ccc3onc(N4CCC(=O)NC4=O)c3c2)CC1 [Example 8]", 91),
    ("CC(C)CN1CCC(Cc2ccc3onc(N4CCC(=O)NC4=O)c3c2)CC1 [Example 5]", 91),
    ("C[C@H]1CN(Cc2ccc3onc(N4CCC(=O)NC4=O)c3c2)CCN1CC1CCCCC1 [Example 28]", 90),
    ("CC(c1ccc2onc(N3CCC(=O)NC3=O)c2c1)N1CCN(C)CC1 (centres unmarked) [Example 127]", 91),
    ("CN1C[C@H]2C[C@@H]1CN2Cc1ccc2onc(N3CCC(=O)NC3=O)c2c1 [Example 97]", 84),
]

----------
biological target: WIZ (Homo sapiens, UniProt O95785+Q96SW2); construct: expressed in transfected cells; assay: Quantification of WIZ protein levels in HiBit tag fusion protein assay (WIZ HiBit assay in 293T cells); type: cell-based; conditions: HEK-293T, DMSO-normalized, curve-fitted percentage of WIZ-HiBit remaining at 25 uM; read-out: WIZ Amax
reported_endpoint: remaining activity at 25 µM (%)

Field: example entries. Status: answers known.
# molecule, measured_value
data = [
    ("CN1C[C@H]2C[C@@H]1CN2Cc1ccc2onc(N3CCC(=O)NC3=O)c2c1", 16),
    ("O=C1CCN(c2noc3ccc(CN4CCN(CC5CCOCC5)[C@@H](C(F)F)C4)cc23)C(=O)N1", 22),
    ("Cc1c(CN2CCN(C)[C@@H](C)C2)ccc2onc(N3CCC(=O)NC3=O)c12", 14),
    ("CC(C)C(=O)N1CCN(Cc2ccc3onc(N4CCC(=O)NC4=O)c3c2)CC1", 18),
    ("CC(C)CN1CCN(Cc2ccc3onc(N4CCC(=O)NC4=O)c3c2)[C@H](C)C1", 12),
]

I = CS(=O)(=O)N1CC2CCC1CN2Cc1ccc2onc(N3CCC(=O)NC3=O)c2c1 (single isomer, unassigned)
II = C[C@@H]1CN(CC2CCOCC2)C[C@H](C)N1Cc1ccc2onc(N3CCC(=O)NC3=O)c2c1
III = O=C1CCN(c2noc3ccc(CN4CCN(C5CCOCC5)CC4)cc23)C(=O)N1
Data request: Please rank these molecules by remaining activity at 25 µM in descending order. Answer format: the labels, in the requested order.
Data returned: II, I, III
(II: 27%, I: 15%, III: 10%)

----------
molecular target: WIZ (Homo sapiens, UniProt O95785+Q96SW2); construct: expressed in transfected cells; test: Quantification of WIZ protein levels in HiBit tag fusion protein assay (WIZ HiBit assay in 293T cells); assay type: cell-based; conditions: HEK-293T, 100 minus Amax at 25 uM; read-out: % degradation of WIZ (100-Amax)
reported_endpoint: Dmax at 25 µM (%)

# compound, measured_value
records = [
    ("CC(C)(C)OC(=O)N1CCCC(Cc2ccc3onc(N4CCC(=O)NC4=O)c3c2)CC1 (centres unmarked) [Example 51]", 87),
    ("CC(C)[C@@H]1CN(C)CCN1Cc1ccc2onc(N3CCC(=O)NC3=O)c2c1 [Example 89]", 83),
    ("C[C@H]1CN(Cc2ccc3onc(N4CCC(=O)NC4=O)c3c2)CCN1C1COC1 [Example 82]", 95),
    ("CCN1CCN(Cc2ccc3onc(N4CCC(=O)NC4=O)c3c2)CC1 [Example 62]", 89),
    ("C[C@@H]1CN(CC2CCOCC2)CCN1Cc1ccc2onc(N3CCC(=O)NC3=O)c2c1 [Example 67]", 89),
    ("CN1CCN(Cc2ccc3onc(N4CCC(=O)NC4=O)c3c2)C[C@@H]1C(F)F [Example 118]", 80),
    ("Cc1c(CN2CCN(CC3CC3)[C@@H](C)C2)ccc2onc(N3CCC(=O)NC3=O)c12 [Example 130]", 86),
    ("O=C1CCN(c2noc3ccc(CC4CCN(Cc5cccc(F)c5)CC4)cc23)C(=O)N1 [Example 7]", 91),
]
